These entries and their values trace back to the Deep4Chem optical property database.

Experiment: solvent given as SMILES
Details: in ClCCl
Each entry below carries its reported absorption maximum.
I only need the number, in nm, no unit after it.

A selection of reference data follows.
>>> recorded_number("CN(C)c1ccc(N2c3c(sc4ccccc34)Sc3sc4ccccc4c32)cc1")
309
>>> recorded_number("Clc1cc(Cl)c(B2c3ccccc3Nc3ccccc32)c(Cl)c1")
396
>>> recorded_number("CCCc1ccc(C#Cc2cc(C#Cc3ccc(CCC)cc3)c3ccc4c(C#Cc5ccc(CCC)cc5)cc(C#Cc5ccc(CCC)cc5)c5ccc2c3c54)cc1")
470
>>> recorded_number("CCOC(=O)/N=c1/oc2cc(OC)ccc2cc1C#N")
370

Now look at this entry.
stdin: Dear colleague, I am looking for the recorded absorption maximum of the following molecule: CCC1=C(C)C2=Cc3c4ccccc4c4n3[B-](c3ccccc3)(Oc3ccccc3-4)[N+]2=C1C (stereo not given)
stdout: 627
